system: NCI-H1944; experiment: relative viability (nuclei count vs DMSO), 5 days (fraction); higher = more cells survive; conditions: first compound 1.265 µM

compound: O=C(O)c1ccc(-c2c[nH]c3ncc(-c4ccccc4)cc23)cc1C1CCCC1 + CC(=O)c1c(C)c2cnc(Nc3ccc(N4CCNCC4)cn3)nc2n(C2CCCC2)c1=O [Palbociclib] (partner 0.5 µM)
relative viability: 0.314
//
compound: O=C(O)c1ccc(-c2c[nH]c3ncc(-c4ccccc4)cc23)cc1C1CCCC1 + Nc1nc2[nH]cc(CCc3ccc(C(=O)N[C@@H](CCC(=O)O)C(=O)O)cc3)c2c(=O)[nH]1 [Pemetrexed] (partner 0.2 µM)
relative viability: 0.565
//
compound: O=C(O)c1ccc(-c2c[nH]c3ncc(-c4ccccc4)cc23)cc1C1CCCC1 + O=C(CCCCCCC(=O)Nc1ccccc1)NO [Vorinostat] (partner 1 µM)
relative viability: 0.465

----------
// reported relative viability for each item listed
test system: HOP-62; assay: relative viability (nuclei count vs DMSO), 5 days (fraction); higher = more cells survive; conditions: first compound 0.01 µM
endpointName: relative viability

compound: NC(=O)Nc1cc(-c2cccc(F)c2)sc1C(=O)N[C@H]1CCCNC1 [AZD7762] + C[C@]1(O)C[C@@H](c2nc(-c3ccc4ccc(-c5ccccc5)nc4c3)c3c(N)nccn32)C1 [Linsitinib] (partner 1 µM)
endpointResult: 1.04
--
compound: NC(=O)Nc1cc(-c2cccc(F)c2)sc1C(=O)N[C@H]1CCCNC1 [AZD7762] + CS(=O)(=O)CCNCc1ccc(-c2ccc3ncnc(Nc4ccc(OCc5cccc(F)c5)c(Cl)c4)c3c2)o1 [Lapatinib] (partner 2 µM)
endpointResult: 0.993
--
compound: NC(=O)Nc1cc(-c2cccc(F)c2)sc1C(=O)N[C@H]1CCCNC1 [AZD7762] + CS(=O)(=O)N1CCN(Cc2cc3nc(-c4cccc5[nH]ncc45)nc(N4CCOCC4)c3s2)CC1 [Pictilisib] (partner 1 µM)
endpointResult: 0.501
--
compound: NC(=O)Nc1cc(-c2cccc(F)c2)sc1C(=O)N[C@H]1CCCNC1 [AZD7762] + CC(C)C[C@H](NC(=O)[C@H](Cc1ccccc1)NC(=O)c1cnccn1)B(O)O [Bortezomib] (partner 0.002 µM)
endpointResult: 0.817

----------
tested on: HCC-827; assay: relative viability (nuclei count vs DMSO), 5 days (fraction); higher = more cells survive; settings: first compound 0.8 µM
endpointName: relative viability

compound: C=C1C(=O)O[C@@H](CCCCCCCC)[C@@H]1C(=O)O [C-75] + CC(C)C[C@H](NC(=O)[C@H](Cc1ccccc1)NC(=O)c1cnccn1)B(O)O [Bortezomib] (partner 0.002 µM)
endpointResult: 0.972
--
compound: C=C1C(=O)O[C@@H](CCCCCCCC)[C@@H]1C(=O)O [C-75] + NC(=O)Nc1cc(-c2cccc(F)c2)sc1C(=O)N[C@H]1CCCNC1 [AZD7762] (partner 0.2 µM)
endpointResult: 0.201
--
compound: Oc1nc(-c2ccc(C(F)(F)F)cc2)nc2c1CSCC2 [XAV939] + CS(=O)(=O)N1CCN(Cc2cc3nc(-c4cccc5[nH]ncc45)nc(N4CCOCC4)c3s2)CC1 [Pictilisib] (partner 1 µM)
endpointResult: 1.24

----------
test system: A-427; assay: relative viability (nuclei count vs DMSO), 5 days (fraction); higher = more cells survive; conditions: first compound 0.5 µM
API: label(entry) gives T if the entry's relative viability is strictly smaller than 1; on equality or larger values it gives F.

molecule: CC1(C)CCC(c2ccc(Cl)cc2)=C(CN2CCN(c3ccc(C(=O)NS(=O)(=O)c4ccc(N[C@H](CCN5CCOCC5)CSc5ccccc5)c(S(=O)(=O)C(F)(F)F)c4)cc3)CC2)C1 [Navitoclax] + CC(C)C[C@H](NC(=O)[C@H](Cc1ccccc1)NC(=O)c1cnccn1)B(O)O [Bortezomib] (partner 0.002 µM)
targetDesc: A-427
group: T
--
molecule: CC1(C)CCC(c2ccc(Cl)cc2)=C(CN2CCN(c3ccc(C(=O)NS(=O)(=O)c4ccc(N[C@H](CCN5CCOCC5)CSc5ccccc5)c(S(=O)(=O)C(F)(F)F)c4)cc3)CC2)C1 [Navitoclax] + COc1cc2c(Oc3ccc(NC(=O)C4(C(=O)Nc5ccc(F)cc5)CC4)cc3F)ccnc2cc1OCCCN1CCOCC1 [Foretinib] (partner 0.25 µM)
targetDesc: A-427
group: F
--
molecule: CC1(C)CCC(c2ccc(Cl)cc2)=C(CN2CCN(c3ccc(C(=O)NS(=O)(=O)c4ccc(N[C@H](CCN5CCOCC5)CSc5ccccc5)c(S(=O)(=O)C(F)(F)F)c4)cc3)CC2)C1 [Navitoclax] + CC(=O)Nc1cccc(-n2c(=O)n(C3CC3)c(=O)c3c(Nc4ccc(I)cc4F)n(C)c(=O)c(C)c32)c1 [Trametinib] (partner 0.02 µM)
targetDesc: A-427
group: T
--
molecule: CC1(C)CCC(c2ccc(Cl)cc2)=C(CN2CCN(c3ccc(C(=O)NS(=O)(=O)c4ccc(N[C@H](CCN5CCOCC5)CSc5ccccc5)c(S(=O)(=O)C(F)(F)F)c4)cc3)CC2)C1 [Navitoclax] + C[C@]1(O)C[C@@H](c2nc(-c3ccc4ccc(-c5ccccc5)nc4c3)c3c(N)nccn32)C1 [Linsitinib] (partner 1 µM)
targetDesc: A-427
group: F
--
molecule: CC1(C)CCC(c2ccc(Cl)cc2)=C(CN2CCN(c3ccc(C(=O)NS(=O)(=O)c4ccc(N[C@H](CCN5CCOCC5)CSc5ccccc5)c(S(=O)(=O)C(F)(F)F)c4)cc3)CC2)C1 [Navitoclax] + CS(=O)(=O)CCNCc1ccc(-c2ccc3ncnc(Nc4ccc(OCc5cccc(F)c5)c(Cl)c4)c3c2)o1 [Lapatinib] (partner 2 µM)
targetDesc: A-427
group: F
--
molecule: CC1(C)CCC(c2ccc(Cl)cc2)=C(CN2CCN(c3ccc(C(=O)NS(=O)(=O)c4ccc(N[C@H](CCN5CCOCC5)CSc5ccccc5)c(S(=O)(=O)C(F)(F)F)c4)cc3)CC2)C1 [Navitoclax] + Cc1nc(NC(=O)N2CCC[C@H]2C(N)=O)sc1-c1ccnc(C(C)(C)C(F)(F)F)c1 [Alpelisib] (partner 2 µM)
targetDesc: A-427
group: F
--
molecule: CC1(C)CCC(c2ccc(Cl)cc2)=C(CN2CCN(c3ccc(C(=O)NS(=O)(=O)c4ccc(N[C@H](CCN5CCOCC5)CSc5ccccc5)c(S(=O)(=O)C(F)(F)F)c4)cc3)CC2)C1 [Navitoclax] + NC(=O)Nc1cc(-c2cccc(F)c2)sc1C(=O)N[C@H]1CCCNC1 [AZD7762] (partner 0.2 µM)
targetDesc: A-427
group: T

----------
test system: NCI-H2009; assay: relative viability (nuclei count vs DMSO), 5 days (fraction); higher = more cells survive; conditions: first compound 0.08 µM

compound: C=C1C(=O)O[C@@H](CCCCCCCC)[C@@H]1C(=O)O [C-75] + COc1cc2c(Oc3ccc(NC(=O)C4(C(=O)Nc5ccc(F)cc5)CC4)cc3F)ccnc2cc1OCCCN1CCOCC1 [Foretinib] (partner 0.25 µM)
targetDesc: NCI-H2009
relative viability: 1.21

compound: Oc1nc(-c2ccc(C(F)(F)F)cc2)nc2c1CSCC2 [XAV939] + C[C@@H](Oc1cc(-c2cnn(C3CCNCC3)c2)cnc1N)c1c(Cl)ccc(F)c1Cl [Crizotinib] (partner 1 µM)
targetDesc: NCI-H2009
relative viability: 1.12

compound: C=C1C(=O)O[C@@H](CCCCCCCC)[C@@H]1C(=O)O [C-75] + CS(=O)(=O)N1CCN(Cc2cc3nc(-c4cccc5[nH]ncc45)nc(N4CCOCC4)c3s2)CC1 [Pictilisib] (partner 1 µM)
targetDesc: NCI-H2009
relative viability: 0.789

compound: Oc1nc(-c2ccc(C(F)(F)F)cc2)nc2c1CSCC2 [XAV939] + O=C(CCCCCCC(=O)Nc1ccccc1)NO [Vorinostat] (partner 1 µM)
targetDesc: NCI-H2009
relative viability: 0.754

compound: C=C1C(=O)O[C@@H](CCCCCCCC)[C@@H]1C(=O)O [C-75] + CC(=O)Nc1cccc(-n2c(=O)n(C3CC3)c(=O)c3c(Nc4ccc(I)cc4F)n(C)c(=O)c(C)c32)c1 [Trametinib] (partner 0.02 µM)
targetDesc: NCI-H2009
relative viability: 0.277

compound: Oc1nc(-c2ccc(C(F)(F)F)cc2)nc2c1CSCC2 [XAV939] + COc1cccc2cc(-c3nc([C@H]4CC[C@H](C(=O)O)CC4)n4ncnc(N)c34)[nH]c12 [OSI-027] (partner 0.5 µM)
targetDesc: NCI-H2009
relative viability: 0.676

----------
The following compounds are shown together with reported relative viability values.
test system: NCI-H1755; assay: relative viability (nuclei count vs DMSO), 5 days (fraction); higher = more cells survive; settings: first compound 0.05 µM
endpointName: relative viability

compound: CC1(C)CCC(c2ccc(Cl)cc2)=C(CN2CCN(c3ccc(C(=O)NS(=O)(=O)c4ccc(N[C@H](CCN5CCOCC5)CSc5ccccc5)c(S(=O)(=O)C(F)(F)F)c4)cc3)CC2)C1 [Navitoclax] + O=C(c1cc(Cc2n[nH]c(=O)c3ccccc23)ccc1F)N1CCN(C(=O)C2CC2)CC1 [Olaparib] (partner 8 µM)
endpointName: relative viability
endpointResult: 0.686
--
compound: CC1(C)CCC(c2ccc(Cl)cc2)=C(CN2CCN(c3ccc(C(=O)NS(=O)(=O)c4ccc(N[C@H](CCN5CCOCC5)CSc5ccccc5)c(S(=O)(=O)C(F)(F)F)c4)cc3)CC2)C1 [Navitoclax] + C[C@@H](Oc1cc(-c2cnn(C3CCNCC3)c2)cnc1N)c1c(Cl)ccc(F)c1Cl [Crizotinib] (partner 1 µM)
endpointName: relative viability
endpointResult: 0.715
--
compound: CC1(C)CCC(c2ccc(Cl)cc2)=C(CN2CCN(c3ccc(C(=O)NS(=O)(=O)c4ccc(N[C@H](CCN5CCOCC5)CSc5ccccc5)c(S(=O)(=O)C(F)(F)F)c4)cc3)CC2)C1 [Navitoclax] + CC(C)C[C@H](NC(=O)[C@H](Cc1ccccc1)NC(=O)c1cnccn1)B(O)O [Bortezomib] (partner 0.002 µM)
endpointName: relative viability
endpointResult: 0.723
--
compound: CC1(C)CCC(c2ccc(Cl)cc2)=C(CN2CCN(c3ccc(C(=O)NS(=O)(=O)c4ccc(N[C@H](CCN5CCOCC5)CSc5ccccc5)c(S(=O)(=O)C(F)(F)F)c4)cc3)CC2)C1 [Navitoclax] + NC(=O)Nc1cc(-c2cccc(F)c2)sc1C(=O)N[C@H]1CCCNC1 [AZD7762] (partner 0.2 µM)
endpointName: relative viability
endpointResult: 0.322
--
compound: CC1(C)CCC(c2ccc(Cl)cc2)=C(CN2CCN(c3ccc(C(=O)NS(=O)(=O)c4ccc(N[C@H](CCN5CCOCC5)CSc5ccccc5)c(S(=O)(=O)C(F)(F)F)c4)cc3)CC2)C1 [Navitoclax] + COc1cc2c(Oc3ccc(NC(=O)C4(C(=O)Nc5ccc(F)cc5)CC4)cc3F)ccnc2cc1OCCCN1CCOCC1 [Foretinib] (partner 0.25 µM)
endpointName: relative viability
endpointResult: 0.735
--
compound: CC1(C)CCC(c2ccc(Cl)cc2)=C(CN2CCN(c3ccc(C(=O)NS(=O)(=O)c4ccc(N[C@H](CCN5CCOCC5)CSc5ccccc5)c(S(=O)(=O)C(F)(F)F)c4)cc3)CC2)C1 [Navitoclax] + Cc1nc(NC(=O)N2CCC[C@H]2C(N)=O)sc1-c1ccnc(C(C)(C)C(F)(F)F)c1 [Alpelisib] (partner 2 µM)
endpointName: relative viability
endpointResult: 0.906

Values compiled from the supplement of paper PMC10307832.
